- ASSAY: Pharmacokinetics in female NMRI mice
- Type: in vivo, mouse
- DETAILS: female, NMRI, mouse, in vivo, ip, 10 mg/kg, Mean Cmax ± SD, non-infected female NMRI mice, 10 mg/kg ip, without ABT-pretreatment, blood
ENDPOINT LABEL: Cmax (ng/mL)
Express it in ng/mL; write the number only.

In plain terms, Cn1nccc1Nc1nc(NCC(F)(F)F)c2nc[nH]c2n1 [Compound 4aa] has a documented Cmax of 3670
